Test Target: CXCR3-PK1 (Homo sapiens, UniProt P49682)
Construct: expressed in transfected cells; host or cells: HEK293 cells stably expressing beta-gal enzyme acceptor (PathHunter, DiscoveRx), transiently transfected
Sequence (P49682 whole entry): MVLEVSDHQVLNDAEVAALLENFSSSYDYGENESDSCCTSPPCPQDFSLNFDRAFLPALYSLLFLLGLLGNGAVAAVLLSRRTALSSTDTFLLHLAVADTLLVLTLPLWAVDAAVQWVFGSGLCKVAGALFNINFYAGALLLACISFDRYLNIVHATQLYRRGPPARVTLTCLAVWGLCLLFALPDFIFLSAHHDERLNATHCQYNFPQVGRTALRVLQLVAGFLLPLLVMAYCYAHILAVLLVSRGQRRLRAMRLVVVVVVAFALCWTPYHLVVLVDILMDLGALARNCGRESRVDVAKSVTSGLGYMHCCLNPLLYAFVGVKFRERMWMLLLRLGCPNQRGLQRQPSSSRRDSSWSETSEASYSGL
Method Summary: β-arrestin 2 recruitment assay (PathHunter, DiscoveRx), CXCR3-PK1 construct
Format: cell-based
Condition Summary: HEK293-T cells, PathHunter, CXCR3-PK1; two to three experiments in triplicate
Protocol: β-arrestin 2 recruitment assay: The measurement of β-arrestin recruitment was performed utilizing the PathHunter assay purchased from DiscoveRx (DiscoveRx, Birmingham, U.K.) according to the manufacturer's protocol. […] Chemiluminescence was determined with a microplate reader Clariostar (BMG labtech, Ortenberg, Germany). […]
Below, each entry is listed alongside its reported CXCR3-PK1 pEC50 ± SEM.
Measurement Type: CXCR3-PK1 pEC50 ± SEM

INSERT INTO measurements (compound, measurement_type, readout_number) VALUES
  ('CC(=O)CCC(=O)N1Cc2ccccc2C[C@H]1C(=O)NCCCC[C@H](NC(=O)OC(C)(C)C)C(=O)NCC(c1ccccc1)c1ccccc1 [Compound 12]', 'CXCR3-PK1 pEC50 ± SEM', 6.78),
  ('CC(C)(C)OC(=O)N[C@@H](CCCCNC(=O)[C@@H]1Cc2ccccc2CN1C(=O)CCc1ccccc1)C(=O)NCC(c1ccccc1)c1ccccc1 [Compound 23]', 'CXCR3-PK1 pEC50 ± SEM', 7.21),
  ('NCCCC[C@@H](NC(=O)[C@@H]1Cc2ccccc2CN1C(=O)CCC(=O)c1ccccc1)C(=O)NCC(c1ccccc1)c1ccccc1.O=C(O)C(F)(F)F [Compound 47]', 'CXCR3-PK1 pEC50 ± SEM', 5.96),
  ('N[C@@H](CCCCNC(=O)[C@@H]1Cc2ccccc2CN1)C(=O)NCC(c1ccccc1)c1ccccc1.O=C(O)C(F)(F)F.O=C(O)C(F)(F)F [Compound 28]', 'CXCR3-PK1 pEC50 ± SEM', 6.80);
